biological target: Cx43 HCs (Homo sapiens); construct: expressed in transfected cells; assay: Cx43-dependent growth complementation assay in E. coli LB2003; assay type: cell-based; conditions: 50 μM; KI members, the 23rd table; read-out: Cx43 % inhibition
Sequence (P17302 whole entry): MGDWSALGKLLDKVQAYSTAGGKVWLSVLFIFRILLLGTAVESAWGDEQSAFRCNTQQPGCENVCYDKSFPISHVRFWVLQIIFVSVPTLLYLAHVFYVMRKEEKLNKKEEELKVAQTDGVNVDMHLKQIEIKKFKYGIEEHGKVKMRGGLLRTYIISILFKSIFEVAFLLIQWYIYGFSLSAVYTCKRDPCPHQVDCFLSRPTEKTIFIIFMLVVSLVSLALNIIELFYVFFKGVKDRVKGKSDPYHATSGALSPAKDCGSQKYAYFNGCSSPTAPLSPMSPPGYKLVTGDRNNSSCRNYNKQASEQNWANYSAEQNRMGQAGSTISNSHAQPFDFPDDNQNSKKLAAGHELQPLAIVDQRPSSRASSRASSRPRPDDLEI
# inhibition at 50 µM per entry
Entry rule: numbers only, all in %.

Examples with answers:
{"columns": ["compound", "inhibition at 50 µM, %"],
 "data": [
  ["NC1CC(N)C(O[C@H]2OC(CNC(=O)c3ccccc3-c3c4ccc(=O)cc-4oc4ccc(O)cc34)[C@@H](O)C(O)C2O)[C@H](O)C1OC1O[C@H](CO)C(O)C(N)[C@H]1O (stereo partly drawn) [KI10]", 83.4],
  ["CCCCCCCCCC(=O)NCC1O[C@H](OC2C(N)CC(N)C(OC3O[C@H](CO)C(O)C(N)[C@H]3O)[C@H]2O)C(O)C(O)[C@@H]1O (stereo partly drawn) [KI03]", 53.5],
  ["NC1CC(N)C(O[C@H]2OC(CNC(=O)CCCc3ccc4ccc5cccc6ccc3c4c56)[C@@H](O)C(O)C2O)[C@H](O)C1OC1O[C@H](CO)C(O)C(N)[C@H]1O (stereo partly drawn) [KI09]", 56.8],
  ["NC1CC(N)C(O[C@H]2OC(CNC(=O)c3cc(-c4ccccc4)nc4ccccc34)[C@@H](O)C(O)C2O)[C@H](O)C1OC1O[C@H](CO)C(O)C(N)[C@H]1O (stereo partly drawn) [KI08]", 51],
  ["CCCCCCCC(=O)NCC1O[C@H](OC2C(N)CC(N)C(OC3O[C@H](CO)C(O)C(N)[C@H]3O)[C@H]2O)C(O)C(O)[C@@H]1O (stereo partly drawn) [KI02]", 37.2]
]}

Please look at the following compound next.
Name the recorded inhibition at 50 µM of the item CCCCCCCCCCCC(=O)NCC1O[C@H](OC2C(N)CC(N)C(OC3O[C@H](CO)C(O)C(N)[C@H]3O)[C@H]2O)C(O)C(O)[C@@H]1O (stereo partly drawn) [KI04] in your answer.
58.2
